B1: TRIM55 (parent)
chain: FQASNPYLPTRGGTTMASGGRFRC

# Variants of: B1
# assay_procedure: protein stability index of a GFP-peptide fusion (GPS, HEK-293T) (PSI 1-6); higher = more stable;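 further: lentivirally expressed fusions sorted by FACS into six bins by GFP to DsRed ratio, PSI derived from sequencing read proportions per bin multiplied by bin number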
# condition_set: c terminus: a fixed tail appended
observable: protein stability index

G20V	1.77
R21G	1.53

Next variant, protein stability index to be filled in.
Give the measured protein stability index of C24K .
2.47
